# TGT: T1, human chemokine (C-C motif) receptor 8 (CCR8) (human, UniProt P51685 1-355)
# T1 construct: also called hCCR8
# RUN_DESCRIPTION: flow cytometry blocking, human PBMC, CD3+ gate; competitor PE-AB12
Each record here notes measured % Blocking.
// unit must come after the numeric part

# return recorded % Blocking for entry anti-CCR8 monoclonal antibody AB5 (antibody, V domains shown, Hybridoma monoclonal; also called antibody 5; clone 5) VH: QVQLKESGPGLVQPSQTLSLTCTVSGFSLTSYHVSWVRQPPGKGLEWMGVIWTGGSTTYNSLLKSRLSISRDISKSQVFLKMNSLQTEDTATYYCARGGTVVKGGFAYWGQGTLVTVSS VL: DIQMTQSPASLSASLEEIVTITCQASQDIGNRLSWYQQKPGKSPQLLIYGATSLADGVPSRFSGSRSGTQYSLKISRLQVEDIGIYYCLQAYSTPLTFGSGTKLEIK
-0.13%

# return recorded % Blocking for entry anti-CCR8 monoclonal antibody AB10 (antibody, V domains shown, Hybridoma monoclonal; also called antibody 10; clone 10) VH: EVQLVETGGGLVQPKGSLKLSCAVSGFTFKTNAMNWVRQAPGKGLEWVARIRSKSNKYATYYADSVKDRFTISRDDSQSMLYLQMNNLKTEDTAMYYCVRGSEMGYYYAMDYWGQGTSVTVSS VL: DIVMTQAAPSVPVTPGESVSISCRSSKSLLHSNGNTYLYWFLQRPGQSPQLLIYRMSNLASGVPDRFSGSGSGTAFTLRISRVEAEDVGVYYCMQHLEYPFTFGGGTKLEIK
93.9%

# return recorded % Blocking for entry anti-CCR8 monoclonal antibody AB6 (antibody, V domains shown, also called antibody 6; clone 6) VH: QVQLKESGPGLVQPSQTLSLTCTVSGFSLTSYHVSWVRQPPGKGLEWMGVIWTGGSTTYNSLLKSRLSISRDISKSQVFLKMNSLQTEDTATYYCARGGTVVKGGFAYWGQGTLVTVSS VL: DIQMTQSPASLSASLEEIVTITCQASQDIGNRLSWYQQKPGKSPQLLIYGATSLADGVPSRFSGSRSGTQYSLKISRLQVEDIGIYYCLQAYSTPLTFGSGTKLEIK
5.71%

# return recorded % Blocking for entry anti-CCR8 monoclonal antibody AB13 (antibody, V domains shown, Hybridoma monoclonal; also called antibody 13; clone 13) VH: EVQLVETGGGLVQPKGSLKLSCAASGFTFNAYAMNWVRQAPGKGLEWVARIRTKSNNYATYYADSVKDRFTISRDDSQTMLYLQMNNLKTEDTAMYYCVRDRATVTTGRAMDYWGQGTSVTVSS VL: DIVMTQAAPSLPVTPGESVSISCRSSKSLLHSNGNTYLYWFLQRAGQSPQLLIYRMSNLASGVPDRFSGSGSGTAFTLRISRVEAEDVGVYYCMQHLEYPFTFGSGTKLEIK
20.3%

Data origin: patent US20240360228A1
